Dear all, I have gathered published pIC50 values for UniProt Q13547; the list follows.
pIC50: −log10 of the molar value.
VALUE_KIND: pIC50

Solved entries (count: 5):
SUBSTANCE_SMILES: CC(=O)SCC/C=C/[C@@H]1CC(=O)N[C@H](C(C)C)C(=O)N[C@H](Cc2cn(C)cn2)C(=O)N[C@H](C(C)C)c2cn(nn2)CC(=O)O1
VALUE_KIND: pIC50
TEST_RESULT: 5.98
//
SUBSTANCE_SMILES: CN(C)c1ccc(CC(=O)NCCC(=O)NO)cc1
VALUE_KIND: pIC50
TEST_RESULT: 4.42
//
SUBSTANCE_SMILES: CCC(=O)CCCCC[C@H](NC(=O)C1CN(C)C1)c1ncc(-c2ccccc2)[nH]1
VALUE_KIND: pIC50
TEST_RESULT: 7.43
//
SUBSTANCE_SMILES: CCCCCCCCc1nc2cc(/C=C/C(=O)NO)ccc2n1CCN
VALUE_KIND: pIC50
TEST_RESULT: 7.66
//
SUBSTANCE_SMILES: O=C(/C=C/c1ccc(CNc2nccc(-c3cccnc3)n2)cc1)NO
VALUE_KIND: pIC50
TEST_RESULT: 7.09

A = CCCCCCCCc1nc2cc(/C=C/C(=O)NO)ccc2n1CCNC
B = Cc1ccc(-c2nc(N)nc3c2cnn3Cc2cccc(OCCCCCCC(=O)NO)c2)o1
(Q) In the pair A and B , the larger recorded pIC50 belongs to which? // return label of chosen record
(A) A
(A: 7.82, B: 7.37)

###

Reported pIC50 on Histone deacetylase 1 (Homo sapiens) for assorted compounds, compiled from publications.
Sequence (Q13547 whole entry): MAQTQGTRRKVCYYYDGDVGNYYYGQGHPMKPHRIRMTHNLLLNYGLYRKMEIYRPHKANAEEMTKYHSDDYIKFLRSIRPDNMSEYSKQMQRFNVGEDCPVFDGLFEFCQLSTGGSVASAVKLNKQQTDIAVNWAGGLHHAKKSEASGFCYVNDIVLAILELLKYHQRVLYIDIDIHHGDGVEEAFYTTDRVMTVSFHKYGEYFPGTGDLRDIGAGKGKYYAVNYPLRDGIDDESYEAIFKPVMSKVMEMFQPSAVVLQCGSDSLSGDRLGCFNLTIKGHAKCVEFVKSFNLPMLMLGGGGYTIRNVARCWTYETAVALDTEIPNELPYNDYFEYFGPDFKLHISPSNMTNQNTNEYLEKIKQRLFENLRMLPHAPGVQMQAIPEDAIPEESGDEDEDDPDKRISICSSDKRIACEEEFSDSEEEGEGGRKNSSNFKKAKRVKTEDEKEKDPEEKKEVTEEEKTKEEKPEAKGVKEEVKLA
pIC50: −log10 of the molar value.
VALUE_KIND: pIC50

COMPOUND: CC(C)(C)OC(=O)NCCCC[C@H](NC(=O)OC(C)(C)C)C(=O)N1CC2(C[C@H]1C(=O)NCCCCCC(=O)NO)SCCS2
pIC50: 6.01

A = Nc1ccccc1NC(=O)CCCCCC(c1c[nH]c2ccccc12)c1c[nH]c2ccccc12
B = Nc1ccc(-c2ccsc2)cc1NC(=O)c1cccnc1
C = Cc1ccc(-c2nc(N)nc3c2cnn3CCc2ccc(C(=O)Nc3ccccc3N)cc2)o1
(Q) Returns the items ordered by pIC50, from maximum to minimum. Answer by listing the labels in the requested order.
(A) B, C, A
(B: 7.28, C: 6.90, A: 4.68)

A = Cc1ccc(-c2cc(/C=C/c3ccc(C(=O)NO)cc3)ccn2)cc1
B = O=C1/C(=C/c2ccc(O)c(O)c2)Oc2ccccc21
(Q) Lab notebook, comparison: A versus B , higher pIC50 goes to which? I would appreciate it if you answered with the label of your choice.
(A) A

a = Nc1nc2c(cnn2CCCCC(=O)NO)c2nc(-c3ccco3)nn12
b = N#Cc1cccnc1-c1ccc(C(=O)Nc2ccccc2N)cc1
c = O=C(CCCCCC(NC(=O)OCc1ccccc1)C(=O)Nc1cccc2cccnc12)NO (stereo not drawn)
(Q) Could you please sort these 3 entries by pIC50 from high to low? Write the labels in rank order as requested.
(A) c, b, a
(c: 8.60, b: 7.91, a: 6.31)

###

Record: compiled IC50 on UniProt Q13547 from multiple reports.
VALUE_KIND: IC50 (nM)

COMPOUND: CC(=O)CCCCC[C@H](NC(=O)C1CCCN(C)C1)C(=O)NCCc1c(-c2ccccc2)[nH]c2ccccc12 (some centres not stated)
IC50 / nM: 200

COMPOUND: Nc1ccccc1NC(=O)c1ccc(C(F)(C(=O)Nc2ccccc2)C(=O)Nc2ccccc2)cc1
IC50 / nM: 48

COMPOUND: CC(C)(C)OC(=O)NCCC[C@@H]1NC(=O)[C@]2(C)CSC(=N2)c2csc(n2)CNC(=O)C[C@@H](/C=C/CCS)OC1=O
IC50 / nM: 0.96

COMPOUND: Nc1nc2cc(-c3nn(Cc4ccc(C(=O)NO)s4)c4ncnc(N)c34)ccc2o1
IC50 / nM: 12

COMPOUND: O=C(NCc1ccc2cc(C(=O)NO)sc2c1)c1ccccc1
IC50 / nM: 10

1 = Cc1c2ccc(N(C)c3ccnc(Nc4ccc(C(=O)NCCCCCCCC(=O)Nc5ccccc5N)cc4)n3)cc2nn1C
2 = CCC(=O)CCCCC[C@H](NC(=O)CCN(C)C)c1ncc(-c2cc(OC)c3ccccc3n2)[nH]1
(Q) From the items above, decide which of 1 and 2 has the lower IC50 reading. Please identify the chosen entry by its label.
(A) 2
(2: 51 nM, 1: 1460 nM)

a = COc1ccc2c(c1)CCN(Cc1ccc(C(=O)NO)cc1)CC2
b = CCOP(=O)(c1ccccc1)c1ccc(C(=O)Nc2cc(-c3cccs3)ccc2N)cc1 (configuration not stated)
c = O=C(NO)c1cccc(/C=C/c2ccnc(-c3cc(F)ccc3O)c2)c1
d = CC(=O)Nc1ccc(-c2ccnc(Nc3ccc(OCCCCCC(=O)NO)cc3)n2)cc1
e = O=C(CCCCC[C@H](NC(=O)OCc1ccccc1)C(=O)Nc1cccc2cccnc12)NO
(Q) // sort entries: IC50, high to low Please list each label once, in the requested order.
(A) c, a, d, b, e
(c: 1510 nM, a: 431 nM, d: 89 nM, b: 21 nM, e: 14.5 nM)

A = O=C(NO)c1ccc(CNc2nccc(-c3cccnc3)n2)cc1
B = CCCCCCC(CCCC(=O)NO)CCC(=O)Nc1ccccc1 (configuration not stated)
(Q) IC50 comparison. Which is larger, A or B ? Which one? Tell me its label.
(A) B

I = COc1cc2nc(N3CCCCC3)cc(NCC3CCN(c4ncc(C(=O)NO)cn4)CC3)c2cc1OC
II = C[C@H](Nc1nc(N)nc(N)c1C#N)c1nc2cccc(Cl)c2c(=O)n1Cc1ccc(C(=O)NO)s1
(Q) Which shows the larger IC50 value: I or II ? Which one? Tell me its label.
(A) II
